This collection of values is drawn from ChEMBL document CHEMBL1961873.

- assayed-system: Dual specificity tyrosine-phosphorylation-regulated kinase 2 (Homo sapiens);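 also: values are mean percent inhibition of DYRK2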
- test-parameters: at 0.1 µM
Recorded inhibition values for a group of compounds are listed next.
observed-property: inhibition (%)

COc1cccc(-n2ncc3c(N/N=C/c4ccc(F)cc4)ncnc32)c1: 5.25
COc1cc2ncn(-c3cc(OCc4ccccc4C(F)(F)F)c(C(=O)N(C)C)s3)c2cc1OC: -0.27
Nc1nc(-c2ccc(F)cc2)c(-c2ccc3ncccc3n2)s1: 3.22
Fc1cccc(COc2ccc(Nc3ncnc4sc(-c5ccco5)cc34)cc2Cl)c1: 3.21
COc1ccc(-c2nn3ncccc3c2-c2ccnc(Nc3ccc4c(c3)OCCO4)n2)cc1: 0.08
N#Cc1c(NC(=O)c2ccc(F)cc2)sc2c1CCCC2: -0.13
Nc1ncc(-c2cccc(S(N)(=O)=O)c2)c2scc(-c3ccc(F)c(Cl)c3)c12: 3.42
c1cc(-c2cnn3nc(N4CCOCC4)ccc23)nc(NC2CC2)n1: 5.57
CCOc1ccc2c(-c3ccnc(Nc4cccc(C(F)(F)F)c4)n3)cnn2n1: 1.79
Cc1cccc2c1NC(=O)/C2=N\Nc1ccc(S(N)(=O)=O)cc1: 2.62
NS(=O)(=O)c1ccc(Nc2ncc(-c3ccccc3)o2)cc1: 2.13
COC(=O)Nc1nc2ccc(S(=O)(=O)c3ccc(NC(=O)Nc4cc(C(F)(F)F)ccc4F)cc3)cc2[nH]1: 2.74
Nc1nc(-c2cccc(Cl)c2)c(-c2ccc3ncccc3n2)s1: 3.16
CNC(=O)c1cccc(C#Cc2cncnc2Nc2ccc(OCc3cccc(F)c3)c(Cl)c2)c1: 0.97
NS(=O)(=O)c1ccc(N/N=C2\C(=O)Nc3ccc4ncccc4c32)cc1: 6.76
Clc1ccc(-c2nn3ncccc3c2-c2ccnc(Nc3ccccc3)n2)cc1: 1.34
COc1ccc2[nH]c3c4[nH]c5ccc(OC)cc5c4c4c(c3c2c1)C(=O)NC4=O: 6.81
Cc1ccc2c(-c3ccnc(Nc4ccccc4)n3)c(-c3ccc(F)cc3)nn2n1: 3.2
Cc1ccc(O)cc1Nc1ccnc2cc(-c3ccccn3)ccc12: 3.35
COc1cc(N2CCN(C(C)C)CC2)ccc1Nc1nc(Nc2ccc(F)cc2C(N)=O)c2cc[nH]c2n1: 5.36
CCn1cc(-c2ccnc3[nH]ccc23)c(-c2cccc(NC(=O)Nc3ccc(OCc4ccccc4)cc3)c2)n1: -0.82
CCn1c(-c2nonc2N)nc2cnc(Oc3cccc(NC(=O)c4ccc(N(C)C)cc4)c3)cc21: 1
CCn1c(-c2nonc2N)nc2c(C#CC(C)(C)O)ncc(OC3CCNCC3)c21: 2.3
CS(=O)(=O)CCNCc1coc(-c2ccc3ncnc(Nc4ccc(OCc5ccccc5)cc4)c3c2)c1: 3.02
CCN(CC)S(=O)(=O)c1ccc(OC)c(Nc2ncc(-c3ccccc3)o2)c1: 1.64
COc1ccc(-c2cc(-c3c[nH]nc3-c3ccccn3)ccn2)cc1: 4.14
CN1CCC(n2cnc(-c3ccc(F)cc3)c2-c2ccnc(N)n2)CC1: 2.29
O=S(=O)(CCNCc1ccc(-c2ccc3ncnc(Nc4ccc(OCc5cccc(F)c5)c(Cl)c4)c3c2)o1)c1ccccc1: 3.86
COc1ccc(CNC(=O)c2ccc(-c3cc(-c4nnc(C)o4)ccc3C)cc2)cc1: 0.27
COc1cc2c(cc1Nc1nc(Nc3ccsc3C(N)=O)c3cc[nH]c3n1)N(C(=O)CN(C)C)CCC2(C)C: 4.55
COc1ccc2c(-c3ccnc(Nc4cccc(OC(F)(F)F)c4)n3)cnn2n1: 4.32
CCCN(CCS(C)(=O)=O)Cc1ccc(-c2ccc3ncnc(Nc4ccc(OCc5cccc(F)c5)c(Cl)c4)c3c2)o1: 1.93
CCNC(=O)O[C@H]1CN[C@H](C#Cc2cc3ncnc(Nc4ccc(OCc5cccc(F)c5)c(Cl)c4)c3s2)C1: 3.13
Fc1ccc(-c2nn3ncccc3c2-c2ccnc(Nc3ccc4c(c3)OCCO4)n2)cc1: 3.56
CNC(=O)c1cncc(/C=C/c2ccccc2Cl)c1: 1.32
COc1ccc(-c2cc3c(N)ncnc3o2)cc1: 0.06
COC(=O)c1sc(-n2cnc3cc(OC)c(OC)cc32)cc1OCc1ccccc1C(F)(F)F: 3.48
CC(=O)NCc1cccc(C#Cc2cncnc2Nc2ccc(OCc3cccc(F)c3)c(Cl)c2)c1: 1.17
O=C(Nc1n[nH]c2cc(-c3ccc(F)cc3)ccc12)C1CC1: 2.57
CCCN1CCC(c2ccc(Nc3nc(Nc4cc(F)ccc4C(N)=O)c4cc[nH]c4n3)c(OC)c2)CC1: 10.3
